Each record here notes measured Content (%) Room temperature (after 3 weeks).
- experimental-protocol: Stability test in distilled water
- Type: physicochemical
- condition-details: 30 mg in 100 ml distilled water, room temperature, 3 weeks
measured-attribute: Content (%) Room temperature (after 3 weeks)

[
  {
    "compound": "CON=C1CN(c2nc3c(cc2F)c(=O)c(C(=O)O)cn3C2CC2)C[C@@]1(C)CN.O=CO [Formate (Comparative Example 5)]",
    "meas-value": 89.7
  },
  {
    "compound": "CON=C1CN(c2nc3c(cc2F)c(=O)c(C(=O)O)cn3C2CC2)C[C@@]1(C)CN.CS(=O)(=O)O [Methanesulfonate (Comparative Example 4)]",
    "meas-value": 96.8
  },
  {
    "compound": "CON=C1CN(c2nc3c(cc2F)c(=O)c(C(=O)O)cn3C2CC2)C[C@@]1(C)CN.Cc1ccc(S(=O)(=O)O)cc1",
    "meas-value": 98.1
  },
  {
    "compound": "CON=C1CN(c2nc3c(cc2F)c(=O)c(C(=O)O)cn3C2CC2)C[C@@]1(C)CN [Free form (Comparative Example 2)]",
    "meas-value": 96.8
  }
]
